The values you see were collected from paper PMC8434776.

# MEASURED_ON: UniProtKB Q16850
# Sequence (Q16850 whole entry): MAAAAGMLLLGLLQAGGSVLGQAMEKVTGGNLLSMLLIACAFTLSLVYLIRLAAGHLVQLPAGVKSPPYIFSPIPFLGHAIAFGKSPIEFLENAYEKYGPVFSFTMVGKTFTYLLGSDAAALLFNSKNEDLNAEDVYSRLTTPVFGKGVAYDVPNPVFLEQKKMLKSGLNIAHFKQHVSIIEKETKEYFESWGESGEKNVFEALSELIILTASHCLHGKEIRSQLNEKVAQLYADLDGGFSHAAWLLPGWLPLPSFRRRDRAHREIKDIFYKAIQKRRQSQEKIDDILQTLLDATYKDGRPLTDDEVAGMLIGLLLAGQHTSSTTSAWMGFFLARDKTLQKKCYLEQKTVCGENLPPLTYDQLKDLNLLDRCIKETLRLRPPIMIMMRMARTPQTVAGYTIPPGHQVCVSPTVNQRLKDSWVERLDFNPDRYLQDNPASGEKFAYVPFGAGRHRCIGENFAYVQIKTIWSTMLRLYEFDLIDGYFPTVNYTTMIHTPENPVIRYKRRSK
# RUN_DESCRIPTION: enzymatic assay, [[…]-3H]lanosterol conversion by purified hCYP51/CPR, radio-HPLC
# Assay type: biochemical
VALUE_KIND: pIC50
Hey, just a heads up that pIC50 is the negative log base 10 of the concentration in molar.

Input: Form field: reported pIC50 of C[C@@H](c1nc(-c2ccc(C#N)cc2)cs1)[C@](O)(Cn1cncn1)c1cc(F)ccc1F
Output: 4.30
